# Tested on: Rattus norvegicus
# Test details: Antiovulatory activity in CD rat assessed as blockade of ovulation at 1 mg, sc administered as six doses at 1200, 1230, 1300, 1350, 1400 and 1450 hrs during proestrus stage measured during estrus stage by dissecting microscopic analysis
# Assay type: functional
Experimental readout: inhibition (INH) (%)

- Smiles string: "CCNC(=O)[C@@H]1CCCN1C(=O)[C@H](CCCNC(=N)N)NC(=O)[C@H](CC(C)C)NC(=O)[C@H](NC(=O)[C@H](Cc1ccc(O)cc1)NC(=O)[C@H](CO)NC(=O)[C@H](Cc1c[nH]c2ccccc12)NC(=O)[C@H](CCC(N)=O)NC(=O)OCc1ccccc1)[C@@H](O)c1ccccc1.Cl"
  Measured value: 100
